biological target: T1, recombinant human IL-6 (human, UniProt P05231 30-212, limits assumed); test: competition ELISA, rhIL-6 in solution against captured IL-6 (Affinity (nM) by IC50 ELISA)
T1 construct: also called rhIL6; human recombinant IL-6
Form field: IC50 (one value per entry).
// return numeric value only (unit: nM, not printed)

Reported IC50 for mAb 1340 (antibody, V domains shown) VH: QVTLKESGPTLVKPTQTLTLTCSFSGFSLSTSGVGVGWVRQPPGKALEWLAFIWWDDDKYYSPSLESRLTITKDTSKNQVVLTMTNMDPVDTATYYCARSADDYLYYSFDTWGQGTLVT VL: DIQMTQSPSSLSAFVGDGVTMTCWASQSINDYLNWYHQRPGEAPELLVFAASNLQIGVPSRFRGSGSETYFTLTINSLQPEDSGTYFCQNGWSFPLTFGGGTKLEI : what is it?
0.028

Need IC50, item mAb 416 (antibody, V domains shown) VH: QVTLKESGPTLVKPTQTLTLTCSFSGFSLSTSGVGVGWVRQPPGKALEWLAFIFWDDDKYYSPSLESRLTITKDTSKNQVVLTMTNMDPVDTATYYCARSYDDYLYYALDYWGQGTLVT VL: DIQMTQSPSSLSAFVGDGVTMTCWASQSINDYLNWYHQRPGEAPELLVFAASNLQIGVPSRFRGSGSETYFTLTINSLQPEDSGTYFCQNGHSFPLTFGGGTKLEI
0.056

What does the record list as IC50 for mAb 1339 (antibody, human IgG1, kappa, V domains shown) VH: QVTLKESGPTLVKPTQTLTLTCSFSGFSLSTSGVGVGWVRQPPGKALEWLAFIWWDDDKYYSPSLESRLTITKDTSKNQVVLTMTNMDPVDTATYYCARSADDYLYYSFDTWGQGTLVTVSS VL: DIQMTQSPSSLSAFVGDGVTMTCWASQSINDYLNWYHQRPGEAPELLVFAASNLQIGVPSRFRGSGSETYFTLTINSLQPEDSGTYFCQNAHSFPLTFGGGTKLEIKR ?
0.026
